# ASSAYED_TARGET: T1, canine IL-31 protein (Canine_IL31) (canine)
# T1 chain: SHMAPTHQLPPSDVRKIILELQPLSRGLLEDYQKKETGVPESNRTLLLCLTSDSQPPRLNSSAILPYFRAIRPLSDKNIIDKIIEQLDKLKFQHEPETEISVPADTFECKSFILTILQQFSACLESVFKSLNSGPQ
# EXPERIMENT_NOTES: SPR (Biacore), IL-31 on chip, 1:1 fit
MEASUREMENT_LABEL: kon

binder="Feline_11E12 1.1_K46Q (antibody, V domains shown, felinized 11E12 with the single VL substitution K46Q; copies: 2 + 2) VH: QVLLVQSGAEVKKPGASVKIFCKASGYSFTYYDINWLRQAPEQGLEWMGWIFPGDGGTKYNETFKGRLTLTADTSTNTVYMELSSLRSADTAMYYCARGGTSVIRDAMDYWGQGALVTVSS VL: EIQMTQSPSSLSASPGDRVTITCRASESVDNYGISFMHWYQQKPGQVPKLLIYRASNLESGVPSRFSGSGSGTDFTLTISSLEPEDAATYYCQQSNKDPLTFGQGTKLEIK" reported_measurement="46400 M⁻¹ s⁻¹"

Value source: patent US20250136677A1
